This section lists Ki readings for Protease (Human immunodeficiency virus 1).
Answers are plain numbers, in nM.

Here is how some compounds turned out for Ki.
CCCCCN(C[C@@H](O)[C@H](Cc1ccccc1)NC(=O)OCCN1CCNC1=O)S(=O)(=O)c1ccc2ncsc2c1 0.217
CC[C@H](C)CN(C[C@@H](O)[C@H](Cc1ccccc1)NC(=O)OC(C)(C)C)S(=O)(=O)c1ccc2ncsc2c1 0.243
CCCCCN(C[C@@H](O)[C@H](Cc1ccccc1)NC(=O)O[C@H](C)CC(=O)OC)S(=O)(=O)c1ccc(OC)cc1 17.2

Now for a further compound.
I have this compound here, CC[C@H](C)CN(C[C@@H](O)[C@H](Cc1ccccc1)NC(=O)OCCNC(=O)C(F)(F)F)S(=O)(=O)c1ccc2ncsc2c1 , and I need its recorded Ki.
9.13
